# Tested Target: T1, Antibody No. 465.1
# T1 construct: also called Ab No. 465.1
# Measurement Protocol: peptide blocking ELISA on plate-bound VISTA, peptide 2 ug/mL
Outcome Measure: percent reduction in ELISA signal (%)

{"Binder": "VVEIRHHHSEHRVHG (synthetic overlapping peptide from human VISTA) [Spiked Peptide 24 (VVEIRHHHSEHRVHG)]", "Assay Value": 16}
{"Binder": "SSSQESENITAA (synthetic overlapping peptide from human VISTA) [Spiked Peptide 31 (SSSQESENITAA)]", "Assay Value": 0}
{"Binder": "FKVATPYSLYVCPEG (synthetic overlapping peptide from human VISTA) [Spiked Peptide 1 (FKVATPYSLYVCPEG)]", "Assay Value": 5}
{"Binder": "DAPSNCVVYPSSSQE (synthetic overlapping peptide from human VISTA) [Spiked Peptide 29 (DAPSNCVVYPSSSQE)]", "Assay Value": 0}

All figures here come from patent US20240132593A1.
